Sourced from ChEMBL document CHEMBL1130417

molecular target: Mu-type opioid receptor (Rattus norvegicus, UniProt P33535); assay: Inhibition of radioligand [3H]DAMGO binding to rat brain Opioid receptor mu 1 […]
Sequence (P33535 whole entry): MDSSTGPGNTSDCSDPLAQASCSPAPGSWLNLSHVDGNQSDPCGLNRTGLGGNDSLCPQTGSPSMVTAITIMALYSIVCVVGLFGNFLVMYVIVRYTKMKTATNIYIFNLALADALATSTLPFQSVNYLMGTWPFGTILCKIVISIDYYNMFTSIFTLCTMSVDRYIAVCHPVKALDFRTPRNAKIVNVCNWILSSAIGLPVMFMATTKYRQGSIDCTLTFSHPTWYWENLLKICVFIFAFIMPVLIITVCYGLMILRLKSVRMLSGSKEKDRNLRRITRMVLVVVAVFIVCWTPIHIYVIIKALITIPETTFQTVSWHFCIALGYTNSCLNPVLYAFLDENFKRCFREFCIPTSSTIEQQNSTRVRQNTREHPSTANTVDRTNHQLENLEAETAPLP
pIC50: −log10 of the molar value.
Below is a list of entries, each paired with its recorded pIC50 value.

- compound: "C=CCN1C[C@H](C)N([C@@H](c2ccc(C(=O)N(CC)CC)cc2)c2cccc(OC)c2)C[C@H]1C (stereo in doubt; (-)-25)"
  experimental system: "Mu-type opioid receptor (Rattus norvegicus, UniProt P33535)"
  comparative sign: "="
  pIC50: 5.04
- compound: "C=CCN1C[C@@H](C)N([C@H](c2ccc(C(=O)N(CC)CC)cc2)c2cccc(F)c2)C[C@@H]1C (single isomer, unassigned)"
  experimental system: "Mu-type opioid receptor (Rattus norvegicus, UniProt P33535)"
  comparative sign: "<"
  pIC50: 5.00
- compound: "C=CCN1C[C@H](C)N([C@@H](c2ccccc2)c2ccc(C(=O)N(CC)CC)cc2)C[C@H]1C (stereo in doubt; (+)-22)"
  experimental system: "Mu-type opioid receptor (Rattus norvegicus, UniProt P33535)"
  comparative sign: "<"
  pIC50: 5.60
- compound: "C=CCN1C[C@H](C)N([C@H](c2ccccc2)c2ccc(C(=O)N(CC)CC)cc2)C[C@H]1C (stereo in doubt; (-)-26)"
  experimental system: "Mu-type opioid receptor (Rattus norvegicus, UniProt P33535)"
  comparative sign: "="
  pIC50: 5.07
